molecular target: Rap guanine nucleotide exchange factor 3 (Homo sapiens); assay: Confirmatory qHTS for agonist of cAMP-regulated guanine nucleotide exchange factor 3 (EPAC1) (AID 1645881); settings: EPAC1 Rap1B BODIPY-GDP exchange fluorescence; series mostly up to 154 µM; also: nearly all actives have a fitted effect of over 75% in size;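 as to activation: EPAC1 catalysed release of BODIPY-GDP from Rap1B seen as fluorescence loss; 100% = effect of cAMP agonist control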
Results filed as inconclusive are left out. Calls of active or inactive are those of the source. Calls follow the shape of the dose curve; as a rule, active = well fitted activation curve with a large enough effect; inconclusive = small, poorly fitted or top-dose-only effect; inactive = no such curve, though single readings can be large or run the other way.
Possible outcomes: 1.0 for active, 0.0 for inactive

>  <COMPOUND>
Cc1[nH]n(-c2ccccc2)c(=O)c1C=Nc1ccc(S(=O)(=O)N=C(N)N)cc1

>  <GROUP_LABEL>
0.0

$$$$
>  <COMPOUND>
Cc1ccc(SC/C(O)=C(\C#N)c2nc3ccccc3s2)cc1

>  <GROUP_LABEL>
0.0

$$$$
>  <COMPOUND>
COc1ccc(Cl)cc1NC(=O)CN(C)Cc1ccc(OC)c(OC)c1

>  <GROUP_LABEL>
0.0

$$$$
>  <COMPOUND>
NS(=O)(=O)c1ccc(NC(=O)c2cccc(N3C(=O)c4ccccc4C3=O)c2)cc1

>  <GROUP_LABEL>
0.0

$$$$
>  <COMPOUND>
Cc1ccc(C)c(Nc2cc(C)nc(-c3ccccc3O)n2)c1

>  <GROUP_LABEL>
0.0

$$$$
>  <COMPOUND>
CC(C)Oc1cccc(C(=O)Nc2ccc3oc(-c4cccc(Cl)c4)nc3c2)c1

>  <GROUP_LABEL>
0.0

$$$$
>  <COMPOUND>
CCOc1ccc(-n2c(SCC(=O)Nc3ccc(F)cc3)nc3c([nH]c4ccccc43)c2=O)cc1

>  <GROUP_LABEL>
0.0

$$$$
>  <COMPOUND>
CCC(C)(C)c1ccc(OCC(=O)N(C)C)c(C(C)(C)CC)c1

>  <GROUP_LABEL>
0.0

$$$$
>  <COMPOUND>
CCc1ccc(C=C2SC(=S)N(CCCC(=O)Nc3ccc(C(=O)O)cc3)C2=O)cc1

>  <GROUP_LABEL>
0.0

$$$$
>  <COMPOUND>
COc1ccc(-c2nc3ccccc3nc2-c2ccccc2)cc1

>  <GROUP_LABEL>
0.0

$$$$
>  <COMPOUND>
O=c1ccc(-c2ccccc2)nn1Cc1ccc(F)cc1Cl

>  <GROUP_LABEL>
0.0

$$$$
>  <COMPOUND>
COC(=O)c1ccc2nc(-c3ccco3)c(Cc3cccc(F)c3)n2c1

>  <GROUP_LABEL>
0.0

$$$$
>  <COMPOUND>
COc1cc(OC)c(-c2cc(C(=O)O)ccc2OC)c(OC)c1

>  <GROUP_LABEL>
0.0

$$$$
>  <COMPOUND>
CC(=O)Nc1ccc(S(=O)(=O)Nc2nc(-c3ccc(C(C)(C)C)cc3)cs2)cc1

>  <GROUP_LABEL>
0.0

$$$$
>  <COMPOUND>
CCc1nc2ccc(C(=O)Nc3ccc(OC)c(OC)c3)cn2c1N(C)CCC(C)C

>  <GROUP_LABEL>
0.0

$$$$
>  <COMPOUND>
OC(c1ccccc1)(c1nc(-c2cccc(C(F)(F)F)c2)cs1)C(F)(F)F (stereo not drawn)

>  <GROUP_LABEL>
0.0

$$$$
>  <COMPOUND>
c1cncc(-c2nc(NCCCN3CCOCC3)c3c4c(sc3n2)CCC4)c1

>  <GROUP_LABEL>
0.0

$$$$
>  <COMPOUND>
Cc1cc(CSc2ccc(Cl)cc2)ccc1N

>  <GROUP_LABEL>
0.0

$$$$
>  <COMPOUND>
CC(=O)C1C(=O)C=C(c2cccs2)CC1c1ccccc1 (stereo not drawn)

>  <GROUP_LABEL>
0.0

$$$$
>  <COMPOUND>
Cc1ccc(C(C)C)c(OCCCn2c(=O)oc3ccc(C)cc32)c1

>  <GROUP_LABEL>
0.0

$$$$
>  <COMPOUND>
Cc1cccc(CN2C(=O)c3ccccc3Sc3ccc(C(=O)N4CCCC4)cc32)c1

>  <GROUP_LABEL>
0.0

$$$$
>  <COMPOUND>
C=CCN(CC=C)Cc1cc(=O)oc2cc(C)c(Cl)cc12

>  <GROUP_LABEL>
0.0

$$$$
>  <COMPOUND>
O=c1[nH]c(Nc2ccc(F)cc2)cc2ccccc12

>  <GROUP_LABEL>
0.0

$$$$
>  <COMPOUND>
CNc1nc(C)cc(C)c1S(=O)(=O)c1ccc(C)cc1

>  <GROUP_LABEL>
0.0

$$$$
>  <COMPOUND>
CCCCC[C@@H](C)N1C[C@H](COCc2ccccc2)Oc2cc(N3CC[C@H](N(C)C)C3)ccc2S1(=O)=O

>  <GROUP_LABEL>
0.0

$$$$
>  <COMPOUND>
Cc1nn(C)cc1N1C(=O)c2cccc3c(N)ccc(c23)C1=O

>  <GROUP_LABEL>
1.0

$$$$
>  <COMPOUND>
COc1ccc(N(CC(=O)NC2CCCCCCC2)S(=O)(=O)c2c(C)nn(C)c2C)cc1

>  <GROUP_LABEL>
0.0

$$$$
>  <COMPOUND>
O=S(=O)(Nc1cc(Sc2ncn[nH]2)c(O)c2ccccc12)c1ccccc1

>  <GROUP_LABEL>
0.0

$$$$
>  <COMPOUND>
COc1cc2c(cc1OC)C(c1cccs1)N(C(=O)C(C)C)CC2 (stereo not drawn)

>  <GROUP_LABEL>
0.0

$$$$
>  <COMPOUND>
COc1ccccc1CNC(=O)C1(C)CCN1Cc1ccc2ccccc2c1 (stereo not drawn)

>  <GROUP_LABEL>
0.0

$$$$
>  <COMPOUND>
COc1ccc(/C(N)=N/OC(=O)c2ccc(C)c([N+](=O)[O-])c2)cc1

>  <GROUP_LABEL>
0.0

$$$$
>  <COMPOUND>
CCc1ccc(S(=O)(=O)Nc2cc(SCC(=O)O)c(O)c3ccccc23)cc1

>  <GROUP_LABEL>
0.0

$$$$
>  <COMPOUND>
Cc1cc(C(C)(C)C)cc(C)c1COC(=O)c1cccnc1

>  <GROUP_LABEL>
0.0

$$$$
>  <COMPOUND>
O=C1C=C(c2ccccc2)C(c2ccccc2)C1 (stereo not drawn)

>  <GROUP_LABEL>
0.0

$$$$
>  <COMPOUND>
COC(=O)c1ccc2nc(-c3ccc(F)cc3)c(Cc3ccsc3)n2c1

>  <GROUP_LABEL>
0.0

$$$$
>  <COMPOUND>
Cc1ccc(S(=O)(=O)N2[C@@H](c3ccc(F)cc3)C(C(=O)O)=CC[C@H]2c2ccc(C(C)C)cc2)cc1

>  <GROUP_LABEL>
0.0

$$$$
>  <COMPOUND>
O=C(c1ccc(O)c(Br)c1)c1cc(Br)ccc1O

>  <GROUP_LABEL>
0.0

$$$$
>  <COMPOUND>
Cc1ccc(S(=O)(=O)NC(=O)c2ccc(-c3ccc(C)c4ccccc34)o2)cc1

>  <GROUP_LABEL>
0.0

$$$$
>  <COMPOUND>
COC(=O)Cn1c(CN2CCc3ccccc3C2)nc2c1c(=O)n(C)c(=O)n2C

>  <GROUP_LABEL>
0.0

$$$$
>  <COMPOUND>
COC(=O)c1cn(S(=O)(=O)c2ccccc2)c2ccccc12

>  <GROUP_LABEL>
0.0

$$$$
>  <COMPOUND>
Cc1ccc(CNC(=O)c2ccc3c(c2)nc(C)n3-c2cccc(F)c2)cc1

>  <GROUP_LABEL>
0.0

$$$$
>  <COMPOUND>
Cc1ccc2nc(N3C(=O)C(O)=C(C(=O)c4ccc(C)o4)C3c3ccc(O)cc3)sc2c1 (stereo not drawn)

>  <GROUP_LABEL>
0.0

$$$$
>  <COMPOUND>
O=C(CN1C(=O)c2ccccc2C1=O)Nc1cc([N+](=O)[O-])ccc1O

>  <GROUP_LABEL>
0.0

$$$$
